All values here come from PubChem BioAssay AID1888.

Molecular target: Regulator of G-protein signaling 16 (Homo sapiens) (UniProt O15492)
Sequence (O15492 whole entry, looked up): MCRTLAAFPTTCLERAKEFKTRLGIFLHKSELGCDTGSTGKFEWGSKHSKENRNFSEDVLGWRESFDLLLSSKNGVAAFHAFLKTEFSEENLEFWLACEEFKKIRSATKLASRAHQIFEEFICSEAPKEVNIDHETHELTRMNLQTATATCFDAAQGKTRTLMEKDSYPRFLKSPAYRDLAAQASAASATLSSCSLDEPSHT
Test: RGS16-Galphao interaction modulators, dose response, biochemical, bead-based flow cytometry, multiplex (AID 1888)
Details: RGS16-Galphao binding
Activity calls are given as the source filed them. How the calls were made is not given here.
Respond using exactly one of the listed classes: active, inactive

Assay outcome for O=C1CCCC2=C1C(c1cccs1)n1ncnc1N2 (centres undefined) : what was it?
inactive

Assay outcome for `NS(=O)(=O)c1ccc(N/N=C/c2ccc(O)c(O)c2O)c([N+](=O)[O-])c1` : what was it?
active

Assay outcome for `O=c1[nH]c(=S)n(Cc2ccco2)c(O)c1C=NCc1cccs1` : what was it?
inactive

Assay outcome for CCOC(=O)C1=C(C)NC(C)=C(C(=O)OCCNC(=O)c2cccnc2)C1c1cccc([N+](=O)[O-])c1 (centres undefined) : what was it?
inactive

Assay outcome for `CCOC(=O)/C(C(=O)Nc1ccccc1Cl)=C1/NC(C)(C)Cc2ccccc21` : what was it?
inactive

Assay outcome for CC(C)Sc1nc2ccc(N3C(=O)C4CCCCC4C3=O)cc2s1 (centres undefined) : what was it?
inactive

Assay outcome for `COc1ccc(Br)cc1/C=N/Nc1cccc(C(=O)O)c1` : what was it?
inactive

Assay outcome for CN(C)[C@@H]1C(=O)C(C(=O)NCN2CCCC2)=C(O)[C@@]2(O)C(=O)C3=C(O)c4c(O)cccc4[C@@](C)(O)C3CC12 (some centres undefined) : what was it?
active

Assay outcome for `CCOC(=O)N=Nc1c(O)n(C)c2ccccc12` : what was it?
inactive

###

Target: UniProt:O15492
Assay: RGS16-Galphao interaction modulators, dose response, biochemical, bead-based flow cytometry, multiplex (AID 1888)
Conditions: RGS16-Galphao binding, measured here: Ki for RGS16-Galphao binding
property.label: Ki (µM)
The answer is to be given in µM; state only the numeric part.

Report Ki for `Cc1ccc(-n2sc3ccccc3c2=O)cc1S(=O)(=O)N1CCCCC1` please.
1.62

Report Ki for O=C(O)C[C@@H]1C(=O)O[C@@H]2C(COC(=O)c3cc(O)c(O)c(O)c3)O[C@@H](OC(=O)c3cc(O)c(O)c(O)c3)[C@@H](OC(=O)c3cc(O)c(O)c4c3[C@H]1[C@H](O)C(=O)O4)[C@H]2OC(=O)c1cc(O)c(O)c(O)c1 (stereo not given in full) please.
1.36

Report Ki for `O=C1CCC(=O)N(O)CCCCCNC(=O)CCC(=O)N(O)CCCCCNC(=O)CCC(=O)N(O)CCCCCN1` please.
1.82

Report Ki for `COc1ccc(C2=CC(=O)C=CC2=O)cc1` please.
3

Report Ki for `O=c1c2ccccc2sn1-c1ccc(S(=O)(=O)N2CCCC2)cc1` please.
1.94

Report Ki for `O=C(COc1ccccc1C(=O)N/N=C\c1ccc(O)c(O)c1)N/N=C/c1ccc(O)c(O)c1` please.
3.24

Report Ki for `O=C(O[C@@H]1OC2COC(=O)c3cc(O)c(O)c(O)c3-c3c(cc(O)c(O)c3O)C(=O)O[C@@H]([C@H]1O)[C@@H]2O)c1cc(O)c(O)c(O)c1` please.
5.42

Report Ki for `CN(C)c1ncc(C2=C(Cl)C(=O)C(N3CCCC3)=C(Cl)C2=O)s1` please.
4.05

Report Ki for `O=C(Cc1csc(N2CCOCC2)n1)N/N=C/c1ccc(O)c(O)c1O` please.
9.08

Report Ki for `Cc1ccccc1-n1sc2cc(F)ccc2c1=O` please.
13

Report Ki for O=C1OCC2OC(O)C(O)C(O)C2OC(=O)c2cc(O)c(O)c(O)c2-c2c(O)c(O)c3oc(=O)c4c(c(O)c(O)c5oc(=O)c2c3c54)-c2c1cc(O)c(O)c2O (stereo not given) please.
13.4

Report Ki for `O=c1c2ccccc2sn1-c1ccccc1` please.
1.37

Report Ki for `COC(=O)CCC(=O)Nc1sc(C)c(C)c1C(N)=O` please.
5.32

Report Ki for `CCNc1ccc2noc3c2c1C(=O)c1ccccc1-3` please.
23.7

Report Ki for `CCN(CC)S(=O)(=O)c1cccc(C(=O)N/N=C/c2ccc(O)c(O)c2O)c1` please.
4.14

Report Ki for `Cc1ccccc1-n1c(-c2ccncc2)n[nH]c1=S` please.
6.29

Report Ki for `Cc1ccc(NC(=O)Cn2sc3nc(C)cc(C)c3c2=O)c(Cl)c1` please.
0.71

Report Ki for `Cc1cc(Cl)ccc1N=c1ssnc1Cl` please.
7.19

Report Ki for `O=c1c2ccccc2sn1-c1cc(S(=O)(=O)N2CCOCC2)ccc1N1CCOCC1` please.
0.56

Report Ki for CCC(=O)NC(c1ccc(C)cc1)c1cc([N+](=O)[O-])c2cccnc2c1O (stereo not given) please.
9.46

Report Ki for `CC(=O)N(O)CCCCCNC(=O)CCC(=O)N(O)CCCCCNC(=O)CCC(=O)N(O)CCCCCN` please.
1.5

Report Ki for `C/C(=N/NC(=O)c1cc(O)c(O)c(O)c1)c1ccc([N+](=O)[O-])cc1` please.
15.8

Report Ki for `CC(=O)N1CC[n+]2c(-c3ccc([N+](=O)[O-])cc3)csc21` please.
11

Report Ki for `CN(C)S(=O)(=O)c1cccc(-n2sc3ccccc3c2=O)c1` please.
1.24

Report Ki for CCOC(=O)C1CCCN(C(=O)Cn2sc3nc(C)cc(C)c3c2=O)C1 (stereo not given) please.
1.53

Report Ki for `COCCCNC(=O)c1ccc2c3c(onc13)-c1ccccc1C2=O` please.
4.61

Report Ki for `CCOC(=O)c1sc(NC(=O)CSc2nnc(Cc3ccccc3)o2)c(C#N)c1C` please.
10.9

Report Ki for `CN1CCN(C2=C(Cl)C(=O)C(c3cnc(N4CCCCC4)s3)=C(Cl)C2=O)CC1` please.
0.15

Report Ki for `O=[N+]([O-])c1ccc(Sc2cccc[n+]2[O-])c2nonc12` please.
1.07

Report Ki for `CCN=c1scc(C)n1/N=C/c1ccc(O)c(O)c1O` please.
15.1

Report Ki for CC(NC(=O)c1sc2cc([N+](=O)[O-])ccc2c1Cl)C(C)(C)C (stereo not given) please.
2

Report Ki for `Cc1cc(C)c2c(=O)n(CC(=O)Nc3cccc(F)c3)sc2n1` please.
1.39

Report Ki for `COc1ccc(OC)c(CCNC(=O)Cn2sc3nc(C)cc(C)c3c2=O)c1` please.
1.43

Report Ki for `CCN1/C(=C/C=C/C=C/c2sc3ccccc3[n+]2CC)Sc2ccccc21` please.
5.41

Report Ki for `NS(=O)(=O)c1ccc(CNC(=O)/C=C/c2ccco2)cc1` please.
6.22

Report Ki for `O=C(NCCCN1CCOCC1)c1sc2cc([N+](=O)[O-])ccc2c1Cl` please.
0.77

Report Ki for `Cc1[nH]n(-c2ccccc2)c(=S)c1C=NCCCN=Cc1c(C)[nH]n(-c2ccccc2)c1=S` please.
7.13

Report Ki for `CC(=O)OCCCNc1cc(Sc2nc3ccccc3s2)c2nonc2c1[N+](=O)[O-]` please.
8.45

Report Ki for Cc1cccc(N2CCN(C(=O)Cn3sc4nc(C)cc(C)c4c3=O)CC2C)c1 (stereo not given) please.
1.05

Report Ki for `O=C1C(Cl)=C(N2CCCCC2)C(=O)C(Cl)=C1c1cnc(N2CCCCC2)s1` please.
1.34
